Origin of measurements: ChEMBL document CHEMBL1201862

Tested on: A549
Test: NCI tumour cell line growth inhibition, 48 h
Calls of active or inactive are those of the source. No stated cut-off is given here; in the data, active = GI50 up to about 1.1 µM and inactive = higher.
Measured GI50, listed per entry.

1) N=C(N)N/N=C/c1c(Cl)nc2sccn12: 30.5 µM (inactive)
2) CC12CC[C@H](O)C(C)(C)[C@H]1CC[C@](C)(O)C2COc1ccc2ccc(=O)oc2c1 (stereo partly specified): 81.7 µM (inactive)
3) Sc1nnc(SCc2ccccc2Cl)c2nc[nH]c12: > 100 µM (inactive)
4) CCOC(=O)[C@H]1Nc2ccccc2C2c3ccccc3CC21 (stereo partly specified): 78.3 µM (inactive)
5) CC(NC(=O)C(C)NC(=O)C(N)CCP(C)(=O)O)C(=O)O (stereo unspecified): > 100 µM (inactive)

Now consider the entry below.
GI50 in this record for COC1OC(CBr)C(OC(=O)c2ccccc2)C(O)C1Br (stereo unspecified) : > 100 µM (inactive)

###

Measured GI50, listed per entry.
System: A549
Experiment: NCI tumour cell line growth inhibition, 48 h
Active and inactive are the calls of the source. No stated cut-off is given here; in the data, active = GI50 up to about 1.1 µM and inactive = higher.

1) COc1ccccc1Cc1ccc(C2C=CC3(CC(=O)C=C3C)C(=O)C2)o1 (stereo not drawn): 33.9 µM (inactive)
2) N#Cc1cccc(N2C(=O)c3ccc(C(=O)c4ccc5c(c4)C(=O)N(c4cccc(C#N)c4)C5=O)cc3C2=O)c1: > 100 µM (inactive)
3) CC(C)(C)N1NC1C1NN1C(C)(C)C (stereo not drawn): > 100 µM (inactive)
4) COc1ccccc1C1C(Cl)C(=O)N1n1cnc2ccccc2c1=O (stereo not drawn): > 100 µM (inactive)
5) COc1ccc(C2=NN(c3ccccc3)C[N+](c3ccc(OC)cc3)=N2)cc1: 48 µM (inactive)
6) c1ccc(CCCC2Sc3cccc4cccc(c34)S2)cc1: > 100 µM (inactive)

GI50 in this record for "O=C1CC(=O)c2c(O)cc(O)c(c2O)-c2c(ccc(O)c2O)C2=CC(=O)c3c(O)cc(O)c(c3O2)-c2c1ccc(O)c2O.O=C1CC2(O)Oc3c1c(O)cc(O)c3-c1c(ccc(O)c1O)-c1cc(=O)c3c(O)cc(O)c(c3o1)-c1c2ccc(O)c1O" : > 50 µM (inactive)

GI50 in this record for "CCCn1c(=O)c(N2CCN(c3ccccc3)CC2)nc2sc3ccccc3c21" : > 100 µM (inactive)

###

Tested on: HOP-62
Assay: NCI tumour cell line growth inhibition, 48 h
Active and inactive are the calls of the source. Cut-off read from the data, not from the text of the source: active = GI50 up to about 1.1 µM and inactive = higher.
Mark one answer only. Choices: y for active, n for inactive

// known answers, use as guide
1. NC(=S)N/N=C1\CCCC1C(O)(C(F)(F)Cl)C(F)(F)Cl (centres undefined): n
2. O=c1nc(NC(c2ccccc2)(c2ccccc2)c2ccccc2)ccn1CCO: n
3. CCc1c(N=[N+]=[N-])c2ccccc2oc1=O: n
4. Cn1cnc([N+](=O)[O-])c1Sc1nnc(-c2cccnc2)n1C: n
5. Cc1ccc2nc(N)[nH]c(=O)c2c1Sc1ccncc1: n

Incoming: # fetch the recorded call for "CCOC(=O)Cn1c(=O)n(C)c(=O)c2[nH]cnc21" here
Outgoing: n

Incoming: # fetch the recorded call for O=C1CC(O)(c2ccccc2)C(c2ccccc2)=C1c1ccccc1 (centres undefined) here
Outgoing: n

Incoming: # fetch the recorded call for "CN/N=C(\C)c1c(O)cc(C)oc1=O" here
Outgoing: n

Incoming: # fetch the recorded call for C/C=C(\NC(=O)C(CCCCN)NC(=O)C(C)NC(=O)C1CSC(C)C(NC(=O)C2CSCC(NC(=O)C(C)NC(=O)C(N)C(C)CC)C(=O)NC(CCCCN)C(=O)NC(Cc3ccccc3)C(=O)NC(CC(C)C)C(=O)N2)C(=O)N2CCCC2C(=O)NCC(=O)N1)C(=O)NCC(=O)NC1CSCC2NC(=O)C(Cc3ccc(O)cc3)NC(=O)C(CSC=CNC2=O)NC(=O)C(CC(N)=O)NC(=O)C(Cc2ccccc2)NC1=O (centres undefined) here
Outgoing: y

Incoming: # fetch the recorded call for "O=c1cc(-c2ccccc2)oc2ccc(Oc3nnnn3-c3ccccc3)cc12" here
Outgoing: n

Incoming: # fetch the recorded call for "COc1ccc([C@H]2C=C(c3cc(F)c(Cl)cc3Cl)NC(=S)N2)cc1" here
Outgoing: n

Incoming: # fetch the recorded call for CC12OC(=O)[C@@]3(O)CCC4C(C[C@H]5O[C@]56CC=CC(=O)[C@]46C)C45OC[C@H]6C(=O)O[C@@H]1C[C@@]6(C)[C@H](C4=O)C23O5 (some centres undefined) here
Outgoing: n

Incoming: # fetch the recorded call for O=C1CC(C(OCc2ccccc2)C(OCc2ccccc2)C(OCc2ccccc2)C(COCc2ccccc2)OCc2ccccc2)CC(=O)N1 (centres undefined) here
Outgoing: n
